Assay: Tmax in Sprague-Dawley rat at 5 mg/kg, po measured upto 24 hrs by LC/MS/MS analysis
Type: ADME, organism-based
Settings: in vivo
ENDPOINT NAME: Tmax (h)
Give just the number in h; leave the unit off.

State the recorded Tmax for this entry: Nc1cc(F)c(S(=O)(=O)N2CCC(O)CC2)cc1C(=O)Nc1cc(F)c(F)c(F)c1
1.58

---

Biological target: Cytochrome P450 3A4 (Homo sapiens, UniProt P08684)
Sequence (P08684 whole entry): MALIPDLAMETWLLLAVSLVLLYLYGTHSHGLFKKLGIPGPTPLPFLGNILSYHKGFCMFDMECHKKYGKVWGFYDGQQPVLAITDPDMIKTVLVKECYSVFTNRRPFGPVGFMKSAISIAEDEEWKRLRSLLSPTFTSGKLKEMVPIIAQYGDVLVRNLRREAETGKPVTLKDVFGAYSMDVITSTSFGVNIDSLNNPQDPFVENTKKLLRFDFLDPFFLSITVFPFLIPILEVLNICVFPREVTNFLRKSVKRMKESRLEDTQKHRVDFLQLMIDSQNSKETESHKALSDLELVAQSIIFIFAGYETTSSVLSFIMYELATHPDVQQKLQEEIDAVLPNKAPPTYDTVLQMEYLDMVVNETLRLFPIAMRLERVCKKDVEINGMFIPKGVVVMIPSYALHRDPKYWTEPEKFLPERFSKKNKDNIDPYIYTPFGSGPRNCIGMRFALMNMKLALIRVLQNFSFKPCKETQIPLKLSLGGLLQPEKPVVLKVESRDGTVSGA
ENDPOINT NAME: IC50 (µM)
Give just the number in µM; leave the unit off.

State the recorded IC50 for this entry: Nc1cc(F)c(S(=O)(=O)N2CCC(O)CC2)cc1C(=O)Nc1cc(F)c(F)c(F)c1
27.8
